target: human Nav1.7 (Homo sapiens (Human)); test: FLIPR or FLIPR TETRA sodium dye assay with KCl and test article pre-incubation; type: cell-based; details: sodium dye assay with KCl; recombinant Nav1.7/HEK293 cells; read-out: Nav1.7 IC50 (μM) ± SEM
Sequence (Q15858 other isoform, or with tags, fused parts or gaps): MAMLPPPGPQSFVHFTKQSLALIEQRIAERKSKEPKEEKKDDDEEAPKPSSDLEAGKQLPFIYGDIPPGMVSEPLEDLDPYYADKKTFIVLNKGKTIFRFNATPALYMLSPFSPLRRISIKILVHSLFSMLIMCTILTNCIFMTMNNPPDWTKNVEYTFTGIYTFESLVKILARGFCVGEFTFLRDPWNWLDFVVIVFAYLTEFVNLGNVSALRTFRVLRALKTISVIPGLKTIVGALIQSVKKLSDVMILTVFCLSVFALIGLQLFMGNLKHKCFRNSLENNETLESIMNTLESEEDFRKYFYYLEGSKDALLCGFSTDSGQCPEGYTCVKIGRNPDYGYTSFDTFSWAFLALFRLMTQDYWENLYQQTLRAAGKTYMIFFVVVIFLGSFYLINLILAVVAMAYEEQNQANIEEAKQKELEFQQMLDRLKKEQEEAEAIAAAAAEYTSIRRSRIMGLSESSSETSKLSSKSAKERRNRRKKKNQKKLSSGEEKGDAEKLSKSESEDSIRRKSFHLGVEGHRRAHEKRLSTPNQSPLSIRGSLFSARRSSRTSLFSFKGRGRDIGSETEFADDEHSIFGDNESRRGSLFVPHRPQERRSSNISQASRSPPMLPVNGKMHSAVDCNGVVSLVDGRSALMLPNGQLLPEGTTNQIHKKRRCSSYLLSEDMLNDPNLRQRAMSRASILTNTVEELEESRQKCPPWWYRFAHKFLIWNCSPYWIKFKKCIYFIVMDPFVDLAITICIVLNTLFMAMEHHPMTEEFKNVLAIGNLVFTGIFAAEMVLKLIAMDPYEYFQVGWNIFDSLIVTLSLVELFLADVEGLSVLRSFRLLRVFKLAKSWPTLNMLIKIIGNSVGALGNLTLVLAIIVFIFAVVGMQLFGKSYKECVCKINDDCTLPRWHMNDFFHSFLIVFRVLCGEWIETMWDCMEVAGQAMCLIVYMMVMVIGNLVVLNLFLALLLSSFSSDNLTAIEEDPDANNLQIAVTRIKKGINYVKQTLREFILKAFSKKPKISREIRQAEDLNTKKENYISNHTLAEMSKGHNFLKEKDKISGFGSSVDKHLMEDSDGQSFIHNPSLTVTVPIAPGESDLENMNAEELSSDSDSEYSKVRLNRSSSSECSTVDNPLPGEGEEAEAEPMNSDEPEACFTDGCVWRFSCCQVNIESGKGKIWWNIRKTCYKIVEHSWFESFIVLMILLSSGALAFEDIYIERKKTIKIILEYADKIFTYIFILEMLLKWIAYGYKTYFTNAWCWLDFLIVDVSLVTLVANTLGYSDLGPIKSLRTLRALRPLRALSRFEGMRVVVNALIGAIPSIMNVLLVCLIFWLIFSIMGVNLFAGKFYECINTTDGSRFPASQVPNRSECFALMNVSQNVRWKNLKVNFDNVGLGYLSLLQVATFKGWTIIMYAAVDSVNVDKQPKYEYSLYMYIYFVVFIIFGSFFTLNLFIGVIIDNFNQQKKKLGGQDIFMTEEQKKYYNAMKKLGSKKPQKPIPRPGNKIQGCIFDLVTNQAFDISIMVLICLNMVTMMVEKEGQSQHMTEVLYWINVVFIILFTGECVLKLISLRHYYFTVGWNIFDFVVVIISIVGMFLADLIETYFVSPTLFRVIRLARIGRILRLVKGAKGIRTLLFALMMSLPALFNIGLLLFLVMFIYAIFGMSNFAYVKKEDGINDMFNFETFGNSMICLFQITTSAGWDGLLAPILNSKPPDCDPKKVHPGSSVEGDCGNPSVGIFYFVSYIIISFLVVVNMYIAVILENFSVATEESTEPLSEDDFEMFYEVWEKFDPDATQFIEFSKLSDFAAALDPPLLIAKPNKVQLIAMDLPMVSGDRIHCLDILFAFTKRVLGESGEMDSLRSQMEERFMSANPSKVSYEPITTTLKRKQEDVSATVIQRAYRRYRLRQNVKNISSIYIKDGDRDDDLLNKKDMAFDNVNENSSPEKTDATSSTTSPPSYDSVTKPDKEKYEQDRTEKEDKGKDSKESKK
property_label: IC50 (µM)

[[record]]
structure_as_smiles = "CN1CCOc2cc(S(=O)(=O)N3CCN(C(=O)c4cccc(-c5ccc(Oc6ccc(F)cc6)cc5)n4)CC3)ccc21"
target_system = "human Nav1.7 (Homo sapiens (Human))"
test_value = 0.78

[[record]]
structure_as_smiles = "CS(=O)(=O)NCCNC(=O)c1cccc(-c2ccc(Oc3ccc(F)cc3)cc2)n1"
target_system = "human Nav1.7 (Homo sapiens (Human))"
test_value = 0.39


[1] NC(=O)[C@H](Cc1c[nH]cn1)NC(=O)c1cccc(-c2ccc(Oc3ccc(F)cc3)cc2)n1
[2] N#Cc1ccc(S(=O)(=O)N2CCN(C(=O)c3cccc(-c4ccc(Oc5ccc(F)cc5)cc4)n3)CC2)cc1
Exam item: Lab note: check whether 1 or 2 shows the higher recorded IC50. Answer with the label corresponding to your selection.
Marked response: 2

* * *

target: UniProt:Q15858; assay: FLIPR or FLIPR TETRA sodium dye assay with KCl and test article pre-incubation; type: cell-based; settings: sodium dye assay with KCl; recombinant Nav1.7/HEK293 cells; read-out: Nav1.7 IC50 (μM) ± SEM
property_label: IC50 (µM)

Worked cases, answers included:
[[record]]
compound = "NC(=O)[C@H](Cc1ccc(O)cc1)NC(=O)c1cccc(-c2ccc(Oc3ccc(F)cc3)cc2)n1 [Compound 48]"
property_label = "IC50"
test_value = 0.55

[[record]]
compound = "NCCCC[C@H](NC(=O)c1cccc(-c2ccc(Oc3ccc(F)cc3)cc2)n1)C(N)=O [Compound 51]"
property_label = "IC50"
test_value = 2.89

[[record]]
compound = "CS(=O)(=O)c1cccc(S(=O)(=O)NCCNC(=O)c2cccc(-c3ccc(Oc4ccc(F)cc4)cc3)n2)c1 [Compound 23]"
property_label = "IC50"
test_value = 0.39

[[record]]
compound = "CN(C)S(=O)(=O)N1CCN(C(=O)c2cccc(-c3ccc(Oc4ccc(F)cc4)cc3)n2)CC1 [Compound 11]"
property_label = "IC50"
test_value = 1.01

[[record]]
compound = "CC(C)C[C@H](NC(=O)c1cccc(-c2ccc(Oc3ccc(F)cc3)cc2)n1)C(N)=O [Compound 44]"
property_label = "IC50"
test_value = 0.34

[[record]]
compound = "O=C(c1cccc(-c2ccc(Oc3ccc(F)cc3)cc2)n1)N1CCN(S(=O)(=O)c2ccc(OC(F)(F)F)cc2)CC1 [Compound 7]"
property_label = "IC50"
test_value = 0.19


[a] CC(C)C[C@H](NC(=O)c1cc([C@H](O)CO)cc(-c2ccc(Oc3ccc(F)cc3)cc2)n1)C(N)=O [Compound 63]
[b] N#Cc1cccc(S(=O)(=O)N2CCN(C(=O)c3cc([C@H](O)CO)cc(-c4ccc(Oc5ccc(F)cc5)cc4)n3)CC2)c1 [Compound 58]
Exam item: I'm curious whether a or b has the smaller IC50 number. Which is it? Answer with the label corresponding to your selection.
Marked response: a
(a: 0.814 µM, b: 2.31 µM)

[A] CS(=O)(=O)c1cccc(S(=O)(=O)N2CCN(C(=O)c3cccc(-c4ccc(Oc5ccc(F)cc5)cc4)n3)CC2)c1 [Compound 8]
[B] NC(=O)[C@H](CO)NC(=O)c1cccc(-c2ccc(Oc3ccc(F)cc3)cc2)n1 [Compound 47]
Exam item: Lab note: check whether A or B shows the higher recorded IC50. Answer with the label corresponding to your selection.
Marked response: B
(B: 1.53 µM, A: 0.78 µM)

[a] CC1(C)C2CCC1(CS(=O)(=O)N1CCN(C(=O)c3cccc(-c4ccc(Oc5ccc(F)cc5)cc4)n3)CC1)C(=O)C2 (stereo not drawn) [Compound 12]
[b] N#Cc1cccc(S(=O)(=O)NCCNC(=O)c2cccc(-c3ccc(Oc4ccc(F)cc4)cc3)n2)c1 [Compound 24]
Exam item: Lab note: check whether a or b shows the higher recorded IC50. Answer with the label corresponding to your selection.
Marked response: a
